Each record here notes measured abundance fitness.
B1: Cyclin-F, residues 28 to 80; numbered along this chain, P41002 (parent)
chain: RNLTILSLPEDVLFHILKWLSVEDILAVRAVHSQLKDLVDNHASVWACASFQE

- Variants of: B1
- method.summary: abundance fitness (aPCA) (normalised: wild type 0, dead -1); higher = more abundant; growth selection in yeast, the domain comes from the species named
- test.conditions: Homo sapiens
Simply state the number, no unit and no words.

- ordered.residues: "RNLTILSLPEDVLFHNLKWLSVEDILAVRAVHSQLKDLVDNHASVWACASFQE"
  test.value: -1.04
- ordered.residues: "RNLTILSLPEDVLFHILKWLSVEDILAVRIVHSQLKDLVDNHASVWACASFQE"
  test.value: -0.264

In the following, a different variant is considered.
QUERY: Request the reported abundance fitness associated with RDLTILSLPEDVLFHILKWLSVEDILAVRAVHSQLKDLVDNHASVWACASFQE
RESULT: -0.306
